relative viability by entry:
Test system: UMB1949 (TSC2-deficient)
assay.details: relative viability vs DMSO (fraction); higher = less cytotoxic
settings: 0.32 nM; serum: 0.1% FBS; 72 h
Counter-ions that a name gives are not always drawn.
Lab note: write the figure by itself, no unit.

Solved entries:
>>> measurement("Cc1ccc([N+](=O)[O-])cc1S(=O)(=O)N(C)/N=C/c1cnc2ccc(Br)cn12 [PIK-75 Hydrochloride]")
0.371
>>> measurement("O=C(Nc1c[nH]nc1-c1nc2ccc(CN3CCOCC3)cc2[nH]1)NC1CC1")
0.973
>>> measurement("CN(C)CC[C@H](CSc1ccccc1)Nc1ccc(S(=O)(=O)NC(=O)c2ccc(N3CCN(Cc4ccccc4-c4ccc(Cl)cc4)CC3)cc2)cc1[N+](=O)[O-]")
0.941
>>> measurement("CN1CC[C@H](c2c(O)cc(O)c3c(=O)cc(-c4ccccc4Cl)oc23)[C@H](O)C1 [Flavopiridol hydrochloride]")
0.989
>>> measurement("Nc1ccn([C@@H]2O[C@H](CO)[C@@H](O)C2(F)F)c(=O)n1 [Gemcitabine Hydrochloride]")
1.02

Query: Item: CC[C@@]1(O)C(=O)OCc2c1cc1n(c2=O)Cc2cc3c(CN(C)C)c(O)ccc3nc2-1 [Topotecan Hydrochloride] Test system: UMB1949 (TSC2-deficient) Read-out: relative viability Value: ?;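 note: renal angiomyolipoma cell lines screened in 384-well plates, viability normalized per plate to DMSO-treated cells, each plate carrying 50 nM rapamycin and 1 µM staurosporine controls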
Reply: 1.03

Query: Next up: "O=C1Nc2ccccc2/C1=C1/Nc2ccccc2C1=O"
Reply: 1.02
